- experimental_system: G-protein coupled bile acid receptor 1 (Homo sapiens, UniProt Q8TDU6)
- Sequence (Q8TDU6 whole entry): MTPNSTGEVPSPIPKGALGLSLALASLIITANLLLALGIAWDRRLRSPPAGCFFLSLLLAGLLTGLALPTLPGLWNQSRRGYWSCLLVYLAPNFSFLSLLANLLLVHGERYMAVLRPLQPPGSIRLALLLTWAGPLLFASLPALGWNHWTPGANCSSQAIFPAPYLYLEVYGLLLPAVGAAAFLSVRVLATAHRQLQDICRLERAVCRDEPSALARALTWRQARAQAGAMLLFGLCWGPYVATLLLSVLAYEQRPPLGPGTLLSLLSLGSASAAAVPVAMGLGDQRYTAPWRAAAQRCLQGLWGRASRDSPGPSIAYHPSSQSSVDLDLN
- assay_explanation: Agonist activity at human TGR5 expressed in human HEK293 cells measured after 5.5 hrs by steady-glo luciferase assay
- Assay type: cell-based
parameter_measured: EC50 (nM)

(1) Fc1ccccc1-c1ccncc1CN1C(c2ccco2)=NOC1c1cc(C(F)(F)F)cc(C(F)(F)F)c1Cl (centres undefined)
(2) Fc1ccccc1-c1ccncc1CN1C(c2ccco2)=NOC1c1cc(C(F)(F)F)cc(C(F)(F)F)c1 (centres undefined)
Task: When the recorded EC50 values are compared, which is smaller: that of 1 or that of 2 ? // output: label of the selected item
Result: 1
(1: 5.6 nM, 2: 15 nM)

(1) Fc1cccc(F)c1-c1ccncc1CN1C(c2ccco2)=NO[C@@H]1c1cc(C(F)(F)F)cc(C(F)(F)F)c1Cl
(2) Fc1ccccc1-c1ccncc1CN1C(c2ccccc2)=NOC1c1cc(C(F)(F)F)cc(C(F)(F)F)c1 (centres undefined)
Task: Of 1 and 2 , whose reported EC50 is numerically smaller? Pick one; state its label.
Result: 1
(1: 1.4 nM, 2: 79 nM)
